Cryptococcus neoformans (ATCC32045) measurements of MIC, listed per entry.
Parameter measured: MIC (µg/mL)

>>> value_reported("CCCCCCCCOc1ccc(NC(=O)C(NC(=O)C2(O)CC(OC(=O)/C=C/c3ccc(O)c(O)c3)C3OC(C)(C)OC3C2)C(C)OC(C)(C)C)cc1 (stereo not shown)")
4
>>> value_reported("CCCCCCCCOc1ccc(NC(=O)C(NC(=O)C2(O)CC(O)C(O)C(OC(=O)/C=C/c3ccc(O)c(O)c3)C2)C(C)O)cc1 (stereo not shown)")
2
>>> value_reported("CCCCCCCCOc1ccc(NC(=O)C(CCCN)NC(=O)C2(O)CC(O)C(O)C(OC(=O)/C=C/c3ccc(O)cc3)C2)cc1 (stereo not shown)")
4
>>> value_reported("CCCCCCCCOc1ccc(NC(=O)C(NC(=O)C2(O)CC(O)C(O)C(OC(=O)/C=C/c3ccc(O)c(O)c3)C2)C(C)OC(C)(C)C)cc1 (stereo not shown)")
1
>>> value_reported("CCCCCCCCOc1ccc(NC(=O)C2(O)CC(O)C(O)C(OC(=O)/C=C/c3ccc(O)c(O)c3)C2)cc1 (stereo not shown)")
2
>>> value_reported("CCCCCCCCOc1ccc(NC(=O)C(CC(=O)OC(C)(C)C)NC(=O)C2(O)CC(OC(=O)/C=C/c3ccc(O)c(O)c3)C3OC(C)(C)OC3C2)cc1 (stereo not shown)")
2
>>> value_reported("CCCCCCCCOc1ccc(NC(=O)C(CC(=O)OC(C)(C)C)NC(=O)C2(O)CC(O)C(O)C(OC(=O)/C=C/c3ccc(O)c(O)c3)C2)cc1 (stereo not shown)")
2
>>> value_reported("CCCCCCCCOc1ccc(NC(=O)C(CCCNC(=O)OC(C)(C)C)NC(=O)C2(O)CC(O)C(O)C(OC(=O)CCc3ccc(O)c(O)c3)C2)cc1 (stereo not shown)")
4
>>> value_reported("CCCCCCCCOc1ccc(NC(=O)C(CC(=O)O)NC(=O)C2(O)CC(O)C(O)C(OC(=O)/C=C/c3ccc(O)c(O)c3)C2)cc1 (stereo not shown)")
16
>>> value_reported("CCCCCCCCOc1ccc(NC(=O)C(CO)NC(=O)C2(O)CC(O)C(O)C(OC(=O)/C=C/c3ccc(O)c(O)c3)C2)cc1 (stereo not shown)")
4
>>> value_reported("CCCCCCCCOc1ccc(NC(=O)C(CCCN)NC(=O)C2(O)CC(O)C(O)C(OC(=O)CCc3ccc(O)c(O)c3)C2)cc1 (stereo not shown)")
8
>>> value_reported("CCCCCCCCOc1ccc(NC(=O)C(CCCNC(=O)OC(C)(C)C)NC(=O)C2(O)CC(O)C(O)C(OC(=O)/C=C/c3ccc(O)c(O)c3)C2)cc1 (stereo not shown)")
1
